Catalogue of binders with associated Max. Activity
# Target Desc: γδ T cell receptor on human γδ T cells (AG000003021) (human)
# Test Summary: flow cytometry, DRC binding at 37°C on human γδ T cells
Kindly answer with a numeric value in fold over background, unit omitted.

Completed entries (count: 2):
VG9B469 (antibody, human IgG1, kappa, V domains shown, IgG1, kappa) VH: EVQLVESGGGLVKPGGSLRLSCAASGFTFSHYDMNWVRQAPGKGLEWVSSISSSSSYIFYADSVKGRFTISRDNAKNSLLLQMNSLRAEDTAVYHCARDRGVGDTSDYYSFGLDVWGQGTMVTVSS VL: DIVMTQSPGTLSLSPGERATLSCRASQNVSSTYLAWYQQKPGQAPRLLIYGACSRATGIPDRFSGSGSGTDFTLTISRLEPEDYAVYYCQQYGSSPPYTFGRGTKLEIKR :: 3000
VG9B195 (antibody, human IgG1, lambda, V domains shown, IgG1, lambda) VH: EVQLVESGGGLVKPGGSLRLSCAASGFTFSPYTMNWVRQAPGKGLEWVSSISSSSSYMYYADSVKGRFTISRDNAKNSLYLQMNSLRAEDTAVYYCARDGDLVGPTYYFDYWGQGTLVTVSS VL: SYELMQPPSVSVSPGQTASITCSGDKLGDKYACWYQQKPGQSPVLVIYQHNKRPSGIPERFSGSNSGKTATLTISGTQAMDEADYYCQAWDSTTVVFGGGTKLTVLG :: 3260

# Max. Activity (binder: VG9B198 (antibody, human IgG1, lambda, V domains shown, IgG1, lambda) VH: QVQLQESGPGLVKPSETLSLTCTVSGDSISSIYWSWIRQSAGKGLEWIGRIYTTDITNYNPSLKSRVTMSADTSKNQLSLKLTSVTAADTAVYYCAKNGYSYGGFNYWGQGTLVTVSS VL: QSVLTQPPSVSGAPGQRVTISCTGSSSNIGAGYDVHWYQRLPGTAPKLLIYGDSYRPSGVPDRFSGSKSGTSASLAITGLQAEDEADYYCQSYDSSLSVVVFGGGTKLTVLG ) is 3040

# Max. Activity (binder: VG9B463 (antibody, human IgG1, lambda, V domains shown, IgG1, lambda) VH: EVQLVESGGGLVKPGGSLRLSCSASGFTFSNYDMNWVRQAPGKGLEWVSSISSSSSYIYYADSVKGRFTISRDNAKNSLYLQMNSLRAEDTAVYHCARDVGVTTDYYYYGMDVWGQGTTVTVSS VL: QPVLTQSSSASGTPGQRVTISCSGSSSNIGSNTVNWYQQFPGTAPKLLIYTNTQRPSGVPDRFSGSKSGTLVSLAISGLQSEDEADYYCAAWDDSLNAWVFGGGTKLTVLG ) is 3030

# Max. Activity (binder: VG9B46 (antibody, human IgG1, kappa, V domains shown, IgG1, kappa) VH: EVQLVESGGGLVKPGGSLRLSCEASGFTFSINSMNWVRQAPGKGLEWVSSISSTSDYIFNADSVKGRFTISRDNAKNSLYLQMNSLRAEDTAVYYCVRDDVFGAFDIWGQGTMVTVSS VL: EIVLTQSPGTLSLSPGERATLSCRTSQSVSRSYLGWYQQKPGQPPRLLIFGSSSRATGIPDRFSGSGSGTDFTLTISRLEPEDFAVYYCQQYSRSPLTFGGGTKVDIKR ) is 3210
